Data provenance is the supplement of paper PMC12636428.

- System: Saccharomyces cerevisiae
- PROTOCOL: transcriptional activation domain activity (GFP:mCherry ratio, weighted mean of sorted bins, harmonized to initial dataset scale) (arbitrary fluorescence ratio units); higher = stronger transcriptional activation
- CONDITIONS USED: beta-estradiol 1 µM; induction time 4 h
ASSAY METRIC: transcriptional activation domain activity
One number for each entry.

Examples with answers:
INPUT SEQUENCE: MTSPPLIKEEQTSSDESQIQQQSKTRRPKTRASVACTSCRDRRIRCVVPSGKK
VALUE MEASURED: 55700

INPUT SEQUENCE: ICFSPPLISCGGFFPSDLLPFLFHSFSFYFLTCWLPVYFLPPLFVACFFICLP
VALUE MEASURED: 60100

INPUT SEQUENCE: CEPLRKATRGLVTTVVNGNDVVPSLSIGVVRDFHSVALSFKEDTGGVLGEVRK
VALUE MEASURED: 39100

INPUT SEQUENCE: MLQVVVQCFGISLLYFRSGVYLCIFTVHGLGYLFCVFCVFGFHSVWVGLCFFV
VALUE MEASURED: 56600

INPUT SEQUENCE: MYCMRYFVPLFLLPFPDSPPIFVILFLISFFLHQKPCIYCTLLLFALFSSTCF
VALUE MEASURED: 48600

Please report transcriptional activation domain activity for every entry that follows.
1. TWHHSIYVPYSFVAAYDHPVCYLIHRFLPLYLTAITFRFHIMTYLLLVGLFSL
2. KPEPAGEKGEGAASGGEGQSGGEGGRRRPSGRGRGRGRGRGGRGGRANRGSRG
3. NSTIHNLFEVVLLPDLCGFCCFSMRFVVLIDLIGTLTLPVSVVYLVYLIYVIA
4. EEEVEEKKAKKEKKSKEDKEDKKAKKDKKSKKDKSKDADEDVERTNGHSTPAA
5. RIWLRRLFDIARLLSVGVSNQWSLRMLLDRDAFTPLLIKWLNYYSLRIWTSAV

RESULT:
45200
38800
46800
26100
68500

Please report transcriptional activation domain activity for every entry that follows.
1. RTLLVVLISMLYFLTVEMFLPVFYLFDESLYNFLSWILTAFWSRLALWVLGFY
2. GVCLKVGITRPKKPNSGERKTARVRLSSGRMITAYVPGEGHNIQQHSVVLVRG
3. FLMLVCLEVIGRGLTNKVVLMPSGLYCIPNIIHPKGFQLALEIIFLVLFIPCP
4. NSSSNNNVSTVPSSMMHSSTLNGTSGLGGDNDDNMLALSLATLANSATASPRL
5. MCVHVCLMFCSLLLSLSPFFFFHDLFLFLYTFSFSLSCFTPSYFSMFSSIPSS
6. YRISLAILQLCKDHLLQSCPTNSEILAFLLHIPHDYLTADVLLDTAFHIKLSK

RESULT:
1. 56000
2. 51900
3. 39600
4. 27900
5. 76200
6. 54000
